- Assayed System: DNA-PK kinase (Homo sapiens, UniProt P78527)
Metric Name: pIC50
In simple prose, pIC50 is minus the logarithm base ten of a concentration in moles per litre.

Molecule: C[S+]([O-])[C@H]1CC[C@@H](Oc2nc(N3CCOCC3)cc3ncccc23)CC1 (mixture of isomers)
pIC50: 6.77

Molecule: c1cnc2cc(N3CCOCC3)nc(OCC3CN(c4ncn[nH]4)C3)c2c1
pIC50: 7.09

Molecule: FC(F)(F)c1cnc(NCC2CCN(c3nc(N4CCOCC4)cc4ncccc34)CC2)nc1
pIC50: 6.84

Molecule: c1cnc(NC2CC3(CCN(c4nc(N5CCOCC5)cc5ncccc45)C3)C2)nc1 (mixture of isomers)
pIC50: 7.09

Molecule: c1cnc2cc(N3CCOCC3)nc(N3CCNCC3)c2c1
pIC50: 5.26

## Task Quote pIC50 reported for c1cnc(NCC2CCN(c3nc(N4CCOCC4)cc4ncccc34)CC2)nc1 please.
## Result 7.41

## Task Look up pIC50 of c1cnc(CN2CCC3CN(c4nc(N5CCOCC5)cc5ncccc45)CC32)nc1 (centres unmarked) and report it.
## Result 5.64

## Task Please look at this molecule and report its pIC50: c1cnc2cc(N3CCOCC3)nc(OC3CCCCC3)c2c1
## Result 6.33

## Task State its pIC50 for this molecule: COC(=O)c1cc(N)nc(NCC2CCN(c3nc(N4CCOCC4)cc4ncccc34)CC2)n1
## Result 7.49

## Task Return reported pIC50. Input molecule: CN(C)C(=O)c1ccnc(NCC2CCN(c3nc(N4CCOCC4)cc4ncccc34)CC2)n1
## Result 7.28

## Task Identify the reported pIC50 for the following entry. c1cnc2cc(N3CCOCC3)nc(N3CCCCC3)c2c1
## Result 6.28

## Task Provide measured pIC50 value, entry: CN(C)S(=O)(=O)n1ccnc1C1CCN(c2nc(N3CCOCC3)cc3ncccc23)CC1
## Result 7.14

## Task Consider the molecule c1cnc2cc(N3CCOCC3)nc(O[C@H]3CC[C@@H](n4ccnn4)CC3)c2c1 and give its recorded pIC50.
## Result 8.22

## Task Give the value of pIC50 reported for the following: N#Cc1cccc(-c2ccnc(NCC3CCN(c4nc(N5CCOCC5)cc5ncccc45)CC3)n2)n1
## Result 6.87

## Task Please look at this molecule and report its pIC50: N#Cc1ccnc(NCC2CCN(c3nc(N4CCOCC4)cc4ncccc34)CC2)n1
## Result 7.16

## Task Tell me its pIC50 given c1cncc(NCC2CCN(c3nc(N4CCOCC4)cc4ncccc34)CC2)c1 as the entry.
## Result 6.81

## Task Return reported pIC50. Input molecule: c1cnc(NC2CCCN(c3nc(N4CCOCC4)cc4ncccc34)CC2)nc1 (centres unmarked)
## Result 6.83

###

Each record here notes measured pIC50.
- Assayed System: Phospho-DNA-PK in FaDu Cells (Homo sapiens)
- Assay: Effect of compounds on phospho-DNA-PK in FaDu cells (MesoScale sandwich immunoassay)
- Conditions: 1 hour pre-incubation, 1 μg/ml Neocarzinostatin 2 hours, averaged values, read-out: MSD FaDu IC50
Hey, just a heads up that pIC50 is the negative log base 10 of the concentration in molar.

## Task Hello, please tell me recorded pIC50 for this one: c1cnc(NC2CCCN(c3nc(N4CCOCC4)cc4ncccc34)CC2)nc1 (stereo not drawn)
## Result 5.33

## Task Annotate the molecule Cc1ccnc(NCC2CCN(c3nc(N4CCOCC4)cc4ncccc34)CC2)n1 with its measured pIC50.
## Result 5.32

## Task Report pIC50 for NC(=O)c1ccnc(NCC2CCN(c3nc(N4CCOCC4)cc4ncccc34)CC2)n1
## Result 6.14

## Task Specify pIC50 for Cn1cc([C@H]2CC[C@@H](Oc3nc(N4CCOCC4)cc4ncc(O)cc34)CC2)cn1 and stop.
## Result 6.72

## Task Give reported pIC50 value for c1cnc(NCC2CCN(c3nc(N4CCOCC4)cc4ncccc34)C2)nc1 (stereo not drawn)
## Result 5.46

## Task Consider the molecule c1cnc(NCCCCOc2nc(N3CCOCC3)cc3ncccc23)nc1 . State its measured pIC50.
## Result 5.18

## Task Give pIC50 for the following molecule: CNC(=O)N1CC(COc2nc(N3CCOCC3)cc3ncccc23)C1
## Result 5.31

## Task Let me know recorded pIC50 for F[C@H]1CN(c2ncn[nH]2)CC[C@@H]1Oc1nc(N2CCOCC2)cc2ncccc12 , thanks.
## Result 6.06

## Task For the molecule N#Cc1cnc(NCC2CCN(c3nc(N4CCOCC4)cc4ncccc34)CC2)nc1N , give its measured pIC50 value.
## Result 5.43
